Each recorded value in this set is attributed to ChEMBL document CHEMBL3627637.

assay.target: UniProt P00734
assay.method.text: Inhibition of human thrombin at 25 uM preincubated with protein for 15 mins followed by boc-Val-Pro-Arg-AMC substrate addition measured after 10 mins by continuous fluorometric analysis
Non-standard residues stand in square brackets, D forms with d. Residues, ends and D or L forms follow the SMILES beside them. *: point of attachment. Phe(4-CN) = N#Cc1ccc(C[C@H](N)C(=O)O)cc1; Phg = N[C@H](C(=O)O)c1ccccc1; Bz = O=C(c1ccccc1)*
measurement.label: inhibition (%)

| compound | measurement.label | unit.symbol | numeric.result |
| --- | --- | --- | --- |
| NCCCC[C@H](NC(=O)[C@H](Cc1cccc(CN)c1)NC(=O)c1ccccc1)C(=O)N[C@H](C(N)=O)c1ccccc1 | inhibition | % | 5.6 |
| N=C(N)c1cccc(C[C@H](NC(=O)c2ccccc2)C(=O)N[C@@H](CCCCN)C(=O)N[C@H](C(N)=O)c2ccccc2)c1 | inhibition | % | 71.1 |
| N#Cc1ccc(C[C@H](NC(=O)c2ccccc2)C(=O)N[C@@H](CCCCN)C(=O)N[C@H](C(N)=O)c2ccccc2)cc1 (Bz-[Phe(4-CN)]-Lys-[Phg]-NH2) | inhibition | % | 7.5 |

----------
assay.method.text: Inhibition of Dengue virus (serotype 2) NS2B-NS3 protease preincubated with protein for 15 mins followed by Abz-Nle-Lys-Arg-Arg-Ser-3-(NO2)Tyr substrate addition measured by continuous fluorometric analysis
Set-up: species or system dengue virus type 2
pIC50: −log10 of the molar value. Non-standard residues stand in square brackets, D forms with d. Residues, ends and D or L forms follow the SMILES beside them. *: point of attachment. Phe(4-guanidino) = N=C(N)Nc1ccc(C[C@H](N)C(=O)O)cc1; Phe(4-CH2NH2) = NCc1ccc(C[C@H](N)C(=O)O)cc1; Hydrocinnamoyl = O=C(CCc1ccccc1)*; Phg = N[C@H](C(=O)O)c1ccccc1; Bz = O=C(c1ccccc1)*
Everything with pIC50 lower than 6 is not met; everything else, including exactly 6, is met.

| molecule | assigned.category |
| --- | --- |
| N=C(N)c1cccc(C[C@H](NC(=O)c2ccc(C(F)(F)F)cc2)C(=O)N[C@@H](CCCCN)C(=O)N[C@H](C(N)=O)c2ccccc2)c1 | not met |
| N=C(N)Nc1cccc(C[C@H](NC(=O)c2ccccc2)C(=O)N[C@@H](CCCCN)C(=O)N[C@H](C(N)=O)c2ccccc2)c1 | not met |
| N=C(N)Nc1ccc(C[C@H](NC(=O)c2ccccc2)C(=O)N[C@@H](CCCCN)C(=O)N[C@H](C(N)=O)c2ccccc2)cc1 (Bz-[Phe(4-guanidino)]-Lys-[Phg]-NH2) | met |
| N=C(N)c1cccc(C[C@H](NC(=O)c2ccccc2)C(=O)N[C@@H](CCCCN)C(=O)N[C@H](C(N)=O)c2ccccc2)c1 | not met |
| N=C(N)c1ccc(C[C@H](NC(=O)c2ccc(N)cc2)C(=O)N[C@@H](CCCCN)C(=O)N[C@H](C(N)=O)c2ccccc2)cc1 | not met |
| NCCCC[C@H](NC(=O)[C@H](Cc1ccc(CN)cc1)NC(=O)c1ccccc1)C(=O)N[C@H](C(N)=O)c1ccccc1 (Bz-[Phe(4-CH2NH2)]-Lys-[Phg]-NH2) | not met |
| CC(=N)Nc1ccc(C[C@H](NC(=O)c2ccccc2)C(=O)N[C@@H](CCCCN)C(=O)N[C@H](C(N)=O)c2ccccc2)cc1 | not met |
| N=C(N)NCCC[C@H](NC(=O)CCc1ccccc1)C(=O)N[C@@H](CCCCN)C(=O)N[C@H](C(N)=O)c1ccccc1 (Hydrocinnamoyl-Arg-Lys-[Phg]-NH2) | not met |
| N=C(N)c1cccc(C[C@H](NC(=O)CCc2ccccc2)C(=O)N[C@@H](CCCCN)C(=O)N[C@H](C(N)=O)c2ccccc2)c1 | not met |
| N=C(N)c1ccc(C[C@H](NC(=O)c2ccccc2)C(=O)N[C@@H](CCCCN)C(=O)N[C@H](C(N)=O)c2ccccc2)cc1 | met |
